SYSTEM TESTED: FEM1B-FNIP1 (Homo sapiens)
Sequence (Q9UK73 whole entry): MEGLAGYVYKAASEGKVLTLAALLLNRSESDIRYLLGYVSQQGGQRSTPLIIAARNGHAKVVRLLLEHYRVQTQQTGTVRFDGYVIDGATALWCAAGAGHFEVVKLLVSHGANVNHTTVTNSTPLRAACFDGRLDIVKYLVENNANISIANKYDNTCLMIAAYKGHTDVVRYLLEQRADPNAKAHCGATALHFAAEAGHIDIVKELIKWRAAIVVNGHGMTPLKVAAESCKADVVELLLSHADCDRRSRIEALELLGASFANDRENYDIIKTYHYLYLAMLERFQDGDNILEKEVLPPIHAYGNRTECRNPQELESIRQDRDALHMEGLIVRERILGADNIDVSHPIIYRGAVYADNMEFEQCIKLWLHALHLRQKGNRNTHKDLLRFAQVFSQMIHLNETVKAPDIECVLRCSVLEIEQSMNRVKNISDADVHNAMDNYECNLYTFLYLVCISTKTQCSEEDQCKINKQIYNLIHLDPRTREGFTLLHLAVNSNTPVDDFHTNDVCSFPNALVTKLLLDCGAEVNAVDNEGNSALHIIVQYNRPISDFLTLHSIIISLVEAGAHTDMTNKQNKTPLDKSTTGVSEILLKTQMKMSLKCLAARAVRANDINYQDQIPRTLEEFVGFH
METHOD: Fluorescence polarization between FEM1B and FNIP1 (covalent ligand screen)
Assay type: binding
ASSAY SETUP: compound at 5 μM; DMSO = 100; FP between FEM1B and FNIP1; read-out: Normalized FP 5 μM
Define the label as t when remaining activity at 5 µM is strictly less than 90% and as f in all remaining cases.

For orientation, consider the following solved cases.
- Cc1ccc(N(CCC#N)C(=O)CCl)cc1C [EN-NJH-016]: t
- C=CCOc1ccccc1CN(C(=O)CCl)c1ccc2c(c1)OCCO2 [EN-NJH-001]: f
- COc1cccc(CN(C(=O)CCl)c2ccc3c(c2)OCCO3)c1 [SB-02-092]: t
- CC(C)(C)OC(=O)CN1CCOc2cc(N(CCC#N)C(=O)CCl)ccc21 [NJH-01-093]: t

Request: Just wondering, is remaining activity at 5 µM of Cc1cc(C)cc(N(CCC#N)C(=O)CCl)c1 [EN-NJH-017] below 90%?
Response: t

Request: Just wondering, is remaining activity at 5 µM of Cc1cc(N(CCC#N)C(=O)CCl)ccc1Cl [EN-NJH-018] below 90%?
Response: t

---

Quick list: activity at 50 µM per entry.
SYSTEM TESTED: FEM1B-FNIP1 (Homo sapiens)
METHOD: Fluorescence polarization between FEM1B and FNIP1 (covalent ligand screen)
Type: binding
ASSAY SETUP: compound at 50 μM; DMSO = 100; FP between FEM1B and FNIP1; read-out: Normalized FP 50 μM
# unit: % | format: bare number

Reference set (3 entries):
* Cc1ccc(N(CCC#N)C(=O)CCl)cc1 | 4.29
* CC(Cl)C(=O)N(CCC#N)c1ccccc1 (stereo not shown) | 113
* COc1cccc(CN(C(=O)CCl)c2ccc3c(c2)OCCO3)c1 | 12.6

Request: Entry under review: N#CCCN(C(=O)CCl)c1ccc2c(c1)OCCO2 . Reported activity at 50 µM?
Response: 4.2

---

SYSTEM TESTED: FEM1B-FNIP1 (Homo sapiens)
METHOD: Fluorescence polarization between FEM1B and FNIP1 (covalent ligand screen)
Assay type: binding
ASSAY SETUP: compound at 50 μM; DMSO = 100; FP between FEM1B and FNIP1; read-out: Normalized FP 50 μM
Define the label as TRUE when activity at 50 µM is strictly less than 10% and as FALSE in all remaining cases.

For orientation, consider the following solved cases.
- Cc1cc(C)cc(N(CCC#N)C(=O)CCl)c1: FALSE
- O=C(CCl)Nc1cc2c(cc1Cl)OCCO2: FALSE
- COc1cc2c(cc1OC)N(C(=O)CCl)CC2: FALSE

Request: Just wondering, is activity at 50 µM of CCOc1ccc(N(CCC#N)C(=O)CCl)cc1 below 10%?
Response: TRUE

Request: Just wondering, is activity at 50 µM of N#CCCN(C(=O)CCl)c1cccc(Cl)c1 below 10%?
Response: TRUE

Request: Just wondering, is activity at 50 µM of CC(=O)N1CCOc2ccc(N(CCC#N)C(=O)CCl)cc21 below 10%?
Response: FALSE

---

SYSTEM TESTED: FEM1B-FNIP1 (Homo sapiens)
METHOD: Fluorescence polarization between FEM1B and FNIP1 (covalent ligand screen)
Type: binding
ASSAY SETUP: compound at 5 μM; DMSO = 100; FP between FEM1B and FNIP1; read-out: Normalized FP 5 μM
Define the label as Fulfilled when remaining activity at 5 µM is strictly less than 40% and as Not fulfilled in all remaining cases.

* O=C(CCl)N(CC=Cc1ccccc1)c1ccc2c(c1)OCCO2 [EN-NJH-021] | Not fulfilled

Request: Just wondering, is remaining activity at 5 µM of CC(=O)N1CCOc2ccc(N(CCC#N)C(=O)CCl)cc21 [NJH-01-085] below 40%?
Response: Fulfilled
